pIC50 values for the molecules below.
- tested.on: Acetylcholinesterase (Homo sapiens, UniProt P22303)
- Sequence (P22303 whole entry): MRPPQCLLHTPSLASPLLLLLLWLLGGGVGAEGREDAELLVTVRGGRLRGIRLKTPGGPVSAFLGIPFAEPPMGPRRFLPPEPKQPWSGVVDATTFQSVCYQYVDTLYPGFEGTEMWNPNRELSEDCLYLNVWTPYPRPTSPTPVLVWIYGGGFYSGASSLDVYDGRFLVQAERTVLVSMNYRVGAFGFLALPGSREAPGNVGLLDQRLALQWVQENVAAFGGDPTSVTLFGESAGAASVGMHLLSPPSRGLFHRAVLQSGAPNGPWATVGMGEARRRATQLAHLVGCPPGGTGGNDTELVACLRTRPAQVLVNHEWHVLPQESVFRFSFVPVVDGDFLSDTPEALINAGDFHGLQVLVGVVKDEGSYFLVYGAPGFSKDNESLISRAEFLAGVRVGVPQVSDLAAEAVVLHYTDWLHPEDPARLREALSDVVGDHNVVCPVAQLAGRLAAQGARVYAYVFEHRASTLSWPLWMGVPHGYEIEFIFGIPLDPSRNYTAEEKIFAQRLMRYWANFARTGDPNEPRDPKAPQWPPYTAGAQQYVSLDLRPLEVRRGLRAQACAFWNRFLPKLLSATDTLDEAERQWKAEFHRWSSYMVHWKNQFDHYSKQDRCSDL
Keep it numeric: pIC50 is minus log10 of the concentration in mol/L.

Query: pIC50; subject: `O=C(NCCCCCNc1c2c(nc3cc(Br)ccc13)CCCC2)Oc1ccc2cc[nH]c2c1`
6.50

Next:
Query: pIC50; subject: `O=C(NCCCCCNc1c2c(nc3cc(F)ccc13)CCCC2)Oc1ccc(-c2cc3cccnc3[nH]2)cc1`
6.82

And what about the molecule `O=C(NCCCNc1c2c(nc3ccccc13)CCCC2)Oc1ccc2cc[nH]c2c1` ?
6.26

----------
- tested.on: Cholinesterase (Homo sapiens, UniProt P06276)
- Sequence (P06276 whole entry): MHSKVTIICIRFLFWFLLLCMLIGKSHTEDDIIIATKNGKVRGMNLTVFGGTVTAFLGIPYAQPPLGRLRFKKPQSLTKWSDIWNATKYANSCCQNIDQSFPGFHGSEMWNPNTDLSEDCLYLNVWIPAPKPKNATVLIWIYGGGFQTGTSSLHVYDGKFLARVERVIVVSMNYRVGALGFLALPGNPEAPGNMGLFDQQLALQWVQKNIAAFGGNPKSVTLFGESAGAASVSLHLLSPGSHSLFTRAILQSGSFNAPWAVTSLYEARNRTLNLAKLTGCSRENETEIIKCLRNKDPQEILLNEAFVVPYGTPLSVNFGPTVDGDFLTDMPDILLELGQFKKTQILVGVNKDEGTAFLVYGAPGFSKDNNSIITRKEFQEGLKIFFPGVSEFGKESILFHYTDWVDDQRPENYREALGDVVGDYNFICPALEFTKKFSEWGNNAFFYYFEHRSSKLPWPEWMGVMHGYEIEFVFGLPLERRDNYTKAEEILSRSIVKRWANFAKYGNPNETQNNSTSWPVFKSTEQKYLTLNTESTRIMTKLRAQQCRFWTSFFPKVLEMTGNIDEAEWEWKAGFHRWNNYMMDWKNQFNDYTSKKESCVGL
property.measured: pIC50
Keep it numeric: pIC50 is minus log10 of the concentration in mol/L.

The cases that follow already have their pIC50 on record.
Form field: pIC50 recorded for `C[C@@H](c1cccc(OC(=O)NCCCCNc2c3c(nc4ccccc24)CCCC3)c1)N(C)C` with Cholinesterase (Homo sapiens, UniProt P06276) (enter value)
7.36

And what about the compound `C[C@@H](c1cccc(OC(=O)NCCCCCCNc2c3c(nc4cc(F)ccc24)CCCC3)c1)N(C)C` ?
7.96

And what about the compound `O=C(NCCCCCCNc1c2c(nc3cc(F)ccc13)CCCC2)Oc1ccc2cc[nH]c2c1` ?
7.37

And what about the compound `O=C(NCCCCCCNc1c2c(nc3cc(F)ccc13)CCCC2)Oc1ccc(-c2cc3cccnc3[nH]2)cc1` ?
7.32

Next:
Form field: pIC50 recorded for `C[C@@H](c1cccc(OC(=O)NCCCCCCNc2c3c(nc4ccccc24)CCCC3)c1)N(C)C` with Cholinesterase (Homo sapiens, UniProt P06276) (enter value)
7.83

----------
# collection of pIC50 values tested on Acetylcholinesterase (Homo sapiens)
Keep it numeric: pIC50 is minus log10 of the concentration in mol/L.

Query: pIC50; subject: `O=C(NCCCCCNc1c2c(nc3cc(Cl)ccc13)CCCC2)Oc1ccc2cc[nH]c2c1`
6.61

And what about the compound `O=C(NCCCCCCNc1c2c(nc3cc(Br)ccc13)CCCC2)Oc1ccc2cc[nH]c2c1` ?
6.95

And what about the compound `C[C@@H](c1cccc(OC(=O)NCCNc2c3c(nc4ccccc24)CCCC3)c1)N(C)C` ?
6.60

And what about the compound `O=C(NCCNc1c2c(nc3ccccc13)CCCC2)Oc1ccc2cc[nH]c2c1` ?
5.90

Next:
Query: pIC50; subject: `C[C@@H](c1cccc(OC(=O)NCCCNc2c3c(nc4ccccc24)CCCC3)c1)N(C)C`
6.41

----------
- test: Hepatotoxicity in IG dosed ICR mouse measured after 48 hrs
- Assay type: toxicity, organism-based
- run.parameters: in vivo, po
property.measured: LD50 at 48 h

Query: LD50 at 48 h; subject: `O=C(NCCCCCCNc1c2c(nc3cc(F)ccc13)CCCC2)Oc1ccc(-c2cc3cccnc3[nH]2)cc1`
> 500 mg/kg

----------
- test: Cytotoxicity against rat PC-12 cells assessed as cell viability at 10 uM incubated for 24 hrs by CCK-8 assay relative to control
- Type: toxicity, cell-based
- run.parameters: read-out: Activity
viability at 24 h, 10 µM values for the compounds below.

The cases that follow already have their viability at 24 h, 10 µM on record.
Query: viability at 24 h, 10 µM; subject: `O=C(NCCCCCNc1c2c(nc3cc(Cl)ccc13)CCCC2)Oc1ccc2cc[nH]c2c1`
> 90%

And what about the compound `O=C(NCCCNc1c2c(nc3ccccc13)CCCC2)Oc1ccc(-c2cc3cccnc3[nH]2)cc1` ?
> 90%

And what about the compound `O=C(NCCCCNc1c2c(nc3ccccc13)CCCC2)Oc1ccc(-c2cc3cccnc3[nH]2)cc1` ?
> 90%

Consider the additional compound presented here.
Query: viability at 24 h, 10 µM; subject: `O=C(NCCCCCCNc1c2c(nc3cc(F)ccc13)CCCC2)Oc1ccc(-c2cc3cccnc3[nH]2)cc1`
> 90%

All figures here come from ChEMBL document CHEMBL5528025.
